target: muPA-V213T (murine); experiment: enzyme inhibition (steady state, chromogenic substrate S-2444); about 2 nM enzyme (purified or conditioned medium of transfected cells) pre-incubated 15 min with varied peptide in HBS (10 mM HEPES pH 7.4, 140 mM NaCl) with 0.1% BSA at 37°C; substrate about KM; fit for competitive inhibition; highest peptide concentration 400 µM
pKi: −log10 of the molar value. Bridge positions count the residues as written; N and C are the ends. Ends that are not written are not given here.
assay.endpoint: pKi

CPAYSRYLAC (disulfide 1-10 (inferred)) [Mupain-1 D9A] :: 6.43
CPAYSRYLDC (disulfide 1-10 (inferred)) [mupain-1] :: 6.61
